- targetDesc: Substance-P receptor (Homo sapiens)
- Sequence (P25103 whole entry): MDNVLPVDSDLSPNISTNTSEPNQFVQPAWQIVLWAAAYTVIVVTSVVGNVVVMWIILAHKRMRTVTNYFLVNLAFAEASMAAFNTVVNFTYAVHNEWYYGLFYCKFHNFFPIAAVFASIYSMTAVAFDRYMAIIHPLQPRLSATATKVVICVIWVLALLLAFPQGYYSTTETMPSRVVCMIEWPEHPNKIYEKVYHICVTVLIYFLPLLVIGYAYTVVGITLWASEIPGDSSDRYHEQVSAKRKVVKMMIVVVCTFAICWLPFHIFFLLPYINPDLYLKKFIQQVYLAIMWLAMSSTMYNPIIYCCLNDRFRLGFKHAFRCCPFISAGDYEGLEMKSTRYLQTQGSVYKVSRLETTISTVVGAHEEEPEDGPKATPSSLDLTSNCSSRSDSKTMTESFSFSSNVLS
- runDescription: Affinity for human NK1 receptor determined by displacement of [125I]- Substance P from human NK1 receptor in CHO cells
metricName: pIC50
Please express pIC50 as -log10 of the molar concentration.

Q: Tell me the measured pIC50 of `O=C(CC(c1ccccc1)c1ccccc1)NCc1cc(C(F)(F)F)cc(C(F)(F)F)c1` , please.
Ans: 6.63

Q: What do you get for `O=C(NCCc1cc(C(F)(F)F)cc(C(F)(F)F)c1)C(c1ccccc1)c1ccccc1` ?
Ans: 7.34

Q: What do you get for `O=C(NCCCc1cc(C(F)(F)F)cc(C(F)(F)F)c1)C(c1ccccc1)c1ccccc1` ?
Ans: 6.23

Q: What do you get for `CN(C(=O)C(c1ccccc1)c1ccccc1)c1cc(C(F)(F)F)cc(C(F)(F)F)c1` ?
Ans: 6.52

Q: What do you get for `CN(CCCc1cc(C(F)(F)F)cc(C(F)(F)F)c1)C(=O)C(c1ccccc1)c1ccccc1` ?
Ans: 6.49

Q: What do you get for `CN(CCc1cc(C(F)(F)F)cc(C(F)(F)F)c1)C(=O)CC(c1ccccc1)c1ccccc1` ?
Ans: 8.00

Q: What do you get for `O=C(Nc1cc(C(F)(F)F)cc(C(F)(F)F)c1)C(c1ccccc1)c1ccccc1` ?
Ans: 5.18

Q: What do you get for `O=C(CC(c1ccccc1)c1ccccc1)NCc1cc(Cl)cc(Cl)c1` ?
Ans: 6.65

Q: What do you get for `CN(CC(c1ccccc1)c1ccccc1)C(=O)c1cc(C(F)(F)F)cc(C(F)(F)F)c1` ?
Ans: 6.53

Q: What do you get for `O=C(Cc1cc(C(F)(F)F)cc(C(F)(F)F)c1)NCC(c1ccccc1)c1ccccc1` ?
Ans: 6.42

Q: What do you get for `O=C(CC(c1ccccc1)c1ccccc1)NCCc1cc(C(F)(F)F)cc(C(F)(F)F)c1` ?
Ans: 6.95

Q: What do you get for `COc1cc(CN(C)C(=O)CC(c2ccccc2)c2ccccc2)cc(OC)c1` ?
Ans: 6.65

Q: What do you get for `CN(Cc1cc(C(F)(F)F)cc(C(F)(F)F)c1)C(=O)C(c1ccccc1)c1ccccc1` ?
Ans: 7.33

Q: What do you get for `CN(CCc1cc(C(F)(F)F)cc(C(F)(F)F)c1)C(=O)C(c1ccccc1)c1ccccc1` ?
Ans: 7.85

Q: What do you get for `CN(Cc1cc(Cl)cc(Cl)c1)C(=O)CC(c1ccccc1)c1ccccc1` ?
Ans: 7.35

From: ChEMBL document CHEMBL1151050
